System: 349418-098-R-PDC complex spheroid viability
Test: Anticancer human tumor 349418-098-R-PDC patient-derived lung adenocarcinoma cell line growth inhibition
Details: second compound 10 µM; first compound 0.00316 µM; stronger effect = lower value
viability, T/C strictly less than 20% = Condition met. Otherwise Condition not met.

compound	label.class
CC[C@@]1(O)C(=O)OCc2c1cc1n(c2=O)Cc2cc3c(CN(C)C)c(O)ccc3nc2-1 + NC1CCC(NC2CC2c2ccccc2)CC1	Condition not met
CC(C)CC(NC(=O)CNC(=O)c1cc(Cl)ccc1Cl)B1OC(=O)CC(CC(=O)O)(C(=O)O)O1 (stereo not given) + NC1CC1c1ccc(-c2cccc(O)c2)cc1	Condition met
CC(C)CC(NC(=O)C(Cc1ccccc1)NC(=O)c1cnccn1)B(O)O (stereo not given) + NC1CC1c1ccc(-c2cccc(O)c2)cc1	Condition met
CC1COCCN1c1cc(-c2ccnn2C)c2ccnc(-c3ccn[nH]3)c2n1 (stereo not given) + NC1CC1c1ccc(-c2cccc(O)c2)cc1	Condition met
COc1cc(Nc2ncc3c(n2)-c2ccc(Cl)cc2C(c2c(F)cccc2OC)=NC3)ccc1C(=O)O + NC1CCC(NC2CC2c2ccccc2)CC1	Condition not met

====

Known viability, T/C of a selection of compounds
Tested on: 349418-098-R-PDC complex spheroid viability
Assay: Anticancer human tumor 349418-098-R-PDC cell line growth inhibition;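 note: spheroids exposed to agents for seven days before readout; 100% = DMSO vehicle control wells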
Conditions: second compound 0.316 µM; first compound 0.00949 µM; stronger effect = lower value

compound	target.of.assay	viability, T/C (%)
CCN(c1cc(-c2ccc(CN3CCOCC3)cc2)cc(C(=O)NCc2c(C)cc(C)[nH]c2=O)c1C)C1CCOCC1 + NC1CCC(NC2CC2c2ccccc2)CC1	349418-098-R-PDC complex spheroid viability	99.1
CCc1c2c(nc3ccc(O)cc13)-c1cc3c(c(=O)n1C2)COC(=O)[C@]3(O)CC + NC1CCC(NC2CC2c2ccccc2)CC1	349418-098-R-PDC complex spheroid viability	2.07
Nc1ccccc1NC(=O)c1ccc(CNC(=O)OCc2cccnc2)cc1 + NC1CC1c1ccc(-c2cccc(O)c2)cc1	349418-098-R-PDC complex spheroid viability	102
Nc1ccn(C2OC(CO)C(O)C2(F)F)c(=O)n1 (centres undefined) + NC1CCC(NC2CC2c2ccccc2)CC1	349418-098-R-PDC complex spheroid viability	4.32
Nc1ncn(C2CC(O)C(CO)S2)c(=O)n1 (centres undefined) + NC1CC1c1ccc(-c2cccc(O)c2)cc1	349418-098-R-PDC complex spheroid viability	93
COc1cc(C2c3cc4c(cc3C(OC3OC5COC(C)OC5C(O)C3O)C3COC(=O)C23)OCO4)cc(OC)c1O (centres undefined) + NC1CC1c1ccc(-c2cccc(O)c2)cc1	349418-098-R-PDC complex spheroid viability	114
O=C(C=Cc1cccc(S(=O)(=O)Nc2ccccc2)c1)NO + NC1CCC(NC2CC2c2ccccc2)CC1	349418-098-R-PDC complex spheroid viability	105
NS(=O)(=O)OCC1CC(n2ccc3c(NC4CCc5ccccc54)ncnc32)CC1O (centres undefined) + NC1CCC(NC2CC2c2ccccc2)CC1	349418-098-R-PDC complex spheroid viability	118
CCc1c2c(nc3ccc(O)cc13)-c1cc3c(c(=O)n1C2)COC(=O)[C@]3(O)CC + NC1CC1c1ccc(-c2cccc(O)c2)cc1	349418-098-R-PDC complex spheroid viability	1.26
